Data origin, for the record: PubChem BioAssay (NCI)

System: IGROV1 ovarian
Test: NCI tumour cell line growth inhibition, 48 h; in the data active = GI50 below about 0.43 µM; inactive = the rest
Possible outcomes: active, inactive

{"COMPOUND": "O=c1cc(-c2ccccc2)[nH]c2ccccc12", "SYSTEM_TESTED": "IGROV1 ovarian", "LABEL_CLASS": "inactive"}
{"COMPOUND": "COc1ccc2c(c1)cn1c3ccc(O)cc3nc(N)c21", "SYSTEM_TESTED": "IGROV1 ovarian", "LABEL_CLASS": "active"}
{"COMPOUND": "N#Cc1c(N2CCCC2)[nH]c(=O)c(C(c2c(Cl)cccc2Cl)c2c(O)c(C#N)c(N3CCCC3)[nH]c2=O)c1O", "SYSTEM_TESTED": "IGROV1 ovarian", "LABEL_CLASS": "inactive"}
{"COMPOUND": "CC1SC(c2ccccc2)N(CCc2cccs2)C1=O (configuration not stated)", "SYSTEM_TESTED": "IGROV1 ovarian", "LABEL_CLASS": "inactive"}
{"COMPOUND": "O=C(O)/C=C\\C(=O)N1C/C(=C\\c2ccccc2Cl)C(=O)/C(=C/c2ccccc2Cl)C1", "SYSTEM_TESTED": "IGROV1 ovarian", "LABEL_CLASS": "inactive"}
{"COMPOUND": "O=C(NCCO)Nc1ccc(-c2nc(N3CCOCC3)c3cccn3n2)cc1", "SYSTEM_TESTED": "IGROV1 ovarian", "LABEL_CLASS": "active"}
{"COMPOUND": "CCN(CC)CC(C)Nc1ccc([N+](=O)[O-])c2sc3ccccc3c(=O)c12 (configuration not stated)", "SYSTEM_TESTED": "IGROV1 ovarian", "LABEL_CLASS": "inactive"}
{"COMPOUND": "COC(C(=O)[O][Ge]([CH3])([CH3])[CH3])c1ccccc1 (configuration not stated)", "SYSTEM_TESTED": "IGROV1 ovarian", "LABEL_CLASS": "inactive"}
{"COMPOUND": "OC(c1cc(-c2ccccc2)nc2ccc(Cl)cc12)C1CCCCN1 (configuration not stated)", "SYSTEM_TESTED": "IGROV1 ovarian", "LABEL_CLASS": "inactive"}
{"COMPOUND": "NCCn1c(=O)[nH]c(=O)[nH]c1=S", "SYSTEM_TESTED": "IGROV1 ovarian", "LABEL_CLASS": "inactive"}
{"COMPOUND": "COc1ccc2sc3c(NCCCN(C)C)nc4ccccc4c3c(=O)c2c1", "SYSTEM_TESTED": "IGROV1 ovarian", "LABEL_CLASS": "inactive"}
{"COMPOUND": "CN1CCC(n2cnc(-c3ccc(F)cc3)c2-c2ccnc(NCCO)n2)CC1", "SYSTEM_TESTED": "IGROV1 ovarian", "LABEL_CLASS": "inactive"}
